Target Of Assay: M1-type muscarinic cholinergic receptor (Rattus norvegicus)
Sequence (P08482 whole entry): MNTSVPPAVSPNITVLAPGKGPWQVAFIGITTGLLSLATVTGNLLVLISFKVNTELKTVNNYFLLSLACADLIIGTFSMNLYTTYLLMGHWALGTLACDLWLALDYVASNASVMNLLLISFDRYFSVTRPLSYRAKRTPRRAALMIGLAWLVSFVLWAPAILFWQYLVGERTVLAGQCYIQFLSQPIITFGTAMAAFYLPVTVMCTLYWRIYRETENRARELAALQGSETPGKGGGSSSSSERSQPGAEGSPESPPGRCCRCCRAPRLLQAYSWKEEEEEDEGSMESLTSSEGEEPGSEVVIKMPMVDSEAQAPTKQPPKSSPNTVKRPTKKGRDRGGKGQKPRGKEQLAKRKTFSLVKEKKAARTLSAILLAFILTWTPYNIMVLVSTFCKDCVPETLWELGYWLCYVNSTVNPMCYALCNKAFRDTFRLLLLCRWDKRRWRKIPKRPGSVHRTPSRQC
Protocol Details: Test for affinity for the M1-type muscarinic cholinergic receptor: displacement of [3H]pirenzepine on rat hippocampus homogenate
Type: binding
Condition Summary: ratio of IC50 M2 (3H-NMS, guinea-pig ileum) to IC50 M1 (3H-pirenzepine, rat hippocampus)
Structures can show the parent of a compound that is named as a salt.
Value Kind: r = (M2 /M1)

• CCN(CC)CCNc1cc2c(nn1)-c1ccccc1CCC2 = 40
• CN(C)CCNc1cc2c(nn1)-c1cc([N+](=O)[O-])ccc1CCC2 = 35
• CCN(CC)CCNc1cc2c(nn1)-c1cc(N)ccc1CCC2 [SR 95776 A, dihydrochloride] = 10
• Cl.Cl.O=[N+]([O-])c1cccc2c1CCCc1cc(NCCN3CCOCC3)nnc1-2 = 110
